Target: human GLP1-R (SNAP-GLP-1R expressed in HEK293 cells) (human) (UniProt P43220)
Sequence (P43220 24-463): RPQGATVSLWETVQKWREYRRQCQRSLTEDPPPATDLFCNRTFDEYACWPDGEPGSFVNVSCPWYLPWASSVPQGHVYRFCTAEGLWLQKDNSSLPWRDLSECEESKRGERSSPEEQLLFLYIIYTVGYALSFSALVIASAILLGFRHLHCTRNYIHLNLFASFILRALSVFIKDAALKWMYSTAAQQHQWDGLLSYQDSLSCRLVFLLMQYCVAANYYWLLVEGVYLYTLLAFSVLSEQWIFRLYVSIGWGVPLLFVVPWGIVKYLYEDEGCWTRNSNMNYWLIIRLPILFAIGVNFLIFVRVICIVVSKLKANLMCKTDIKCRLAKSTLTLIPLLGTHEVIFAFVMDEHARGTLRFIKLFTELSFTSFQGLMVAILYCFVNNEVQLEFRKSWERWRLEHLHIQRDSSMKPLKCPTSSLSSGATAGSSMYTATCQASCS
Test: cell-based or functional assay
Starred links: 1 amine or outer side, 2 acyl side, 3 side chain; linkers in the order of their positions; H or OH if unused. Non-standard residues stand in square brackets, D forms with d. Groups on a side chain read outwards from the residue. No end group written: not given here. *: point of attachment. C18 diacid = O=C(O)CCCCCCCCCCCCCCCCC(=O)*; γGlu = O=C(O)[C@H](CCC(=O)[*:2])N[*:1]; αMeL = CC(C)C[C@](C)(N)C(=O)O; Dap = NC[C@H](N)C(=O)O; AEEA = NCCOCCOCC(=O)O; Aib = CC(C)(N)C(=O)O
Criterion: Internalization % TOP strictly under 60%. Met: TRUE. Not met: FALSE.

YXQGTFTSDFSXXLDKKAQXAFIEYLLAGGPSSGEPPPSEG (synthetic construct; SITE 2: note = 2-Aminoisobutyric Acid; SITE 12: note = L-ornithine; SITE 13: note = alpha-methyl-leucine; SITE 17: note = Lysine is chemically modified through conjugation of the epsilon-amino group of the Lysine side chain with (2-[2-(2-Amino-ethoxy)-ethoxy]-acetyl)-(gamma-Glu)) [Example 29]: TRUE
YXQGTFTSDFSRXLDKKAQXAFIEYLLEGGPSSGAPPPGGS (synthetic construct; SITE 2: note = 2-Aminoisobutyric Acid; SITE 13: note = alpha-methyl-leucine; SITE 17: note = Lysine is chemically modified through conjugation of the epsilon-amino group of the Lysine side chain with (2-[2-(2-Amino-ethoxy)-ethoxy]-acetyl)-(gamma-Glu)-CO-(CH2) 18-CO2H; SITE 20: n) [Example 41]: FALSE
YXQGTFTSDFSKXLDKKAQXAFIEYLLAGGPSSGAPPPGGS (synthetic construct; SITE 2: note = 2-Aminoisobutyric Acid; SITE 13: note = alpha-methyl-leucine; SITE 17: note = Lysine is chemically modified through conjugation of the epsilon-amino group of the Lysine side chain with (2-[2-(2-Amino-ethoxy)-ethoxy]-acetyl)-(gamma-Glu)-CO-(CH2) 18-CO2H; SITE 20: n) [Example 16]: FALSE
YXQGTFTSDFSXXLDKKAQXAFIEYLLAGGPSSGAPPPSGT (synthetic construct; SITE 2: note = 2-Aminoisobutyric Acid; SITE 12: note = L-ornithine; SITE 13: note = alpha-methyl-leucine; SITE 17: note = Lysine is chemically modified through conjugation of the epsilon-amino group of the Lysine side chain with (2-[2-(2-Amino-ethoxy)-ethoxy]-acetyl)-(gamma-Glu)) [Example 87]: TRUE
YXQGTFTSDFSXXLDKKAQXAFIEYLLAGGPSSGAPPPEGE (synthetic construct; SITE 2: note = 2-Aminoisobutyric Acid; SITE 12: note = L-ornithine; SITE 13: note = alpha-methyl-leucine; SITE 17: note = Lysine is chemically modified through conjugation of the epsilon-amino group of the Lysine side chain with (2-[2-(2-Amino-ethoxy)-ethoxy]-acetyl)-(gamma-Glu)) [Example 99]: TRUE
YXQGTFTSDFSXXLDKKAQXAFIEWLLEGGPSSGAPPPSGS (synthetic construct; SITE 2: note = 2-Aminoisobutyric Acid; SITE 12: note = L-ornithine; SITE 13: note = alpha-methyl-leucine; SITE 17: note = Lysine is chemically modified through conjugation of the epsilon-amino group of the Lysine side chain with (2-[2-(2-Amino-ethoxy)-ethoxy]-acetyl)-(gamma-Glu)) [Example 78]: TRUE
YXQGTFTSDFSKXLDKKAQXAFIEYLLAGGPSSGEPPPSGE (synthetic construct; SITE 2: note = 2-Aminoisobutyric Acid; SITE 13: note = alpha-methyl-leucine; SITE 17: note = Lysine is chemically modified through conjugation of the epsilon-amino group of the Lysine side chain with (2-[2-(2-Amino-ethoxy)-ethoxy]-acetyl)-(gamma-Glu)-CO-(CH2) 18-CO2H; SITE 20: n) [Example 2]: FALSE
YXQGTFTSDFSKXLDKKAQXAFIEYLLEGGPSSGAPPPGEG (synthetic construct; SITE 2: note = 2-Aminoisobutyric Acid; SITE 13: note = alpha-methyl-leucine; SITE 17: note = Lysine is chemically modified through conjugation of the epsilon-amino group of the Lysine side chain with (2-[2-(2-Amino-ethoxy)-ethoxy]-acetyl)2-(gamma-Glu)-CO-(CH2 )18-CO2H; SITE 20:) [Example 17]: FALSE
YXQGTFTSDFSKXLDKKAQXAFIEYLLEGGPSSGAPPPSEG (synthetic construct; SITE 2: note = 2-Aminoisobutyric Acid; SITE 13: note = alpha-methyl-leucine; SITE 17: note = Lysine is chemically modified through conjugation of the epsilon-amino group of the Lysine side chain with (gamma-Glu)2-CO-(CH2)16-CO2H; SITE 20: note = 2-Aminoisobutyric Acid; SITE 41:) [Example 58]: FALSE
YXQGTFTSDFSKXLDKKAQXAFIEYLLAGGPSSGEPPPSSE (synthetic construct; SITE 2: note = 2-Aminoisobutyric Acid; SITE 13: note = alpha-methyl-leucine; SITE 17: note = Lysine is chemically modified through conjugation of the epsilon-amino group of the Lysine side chain with (2-[2-(2-Amino-ethoxy)-ethoxy]-acetyl)-(gamma-Glu)-CO-(CH2) 18-CO2H; SITE 20: n) [Example 3]: FALSE
YXQGTFTSDFSKXLDKKAQXAFIEYLLAGGPSSGEPPPSGS (synthetic construct; SITE 2: note = 2-Aminoisobutyric Acid; SITE 13: note = alpha-methyl-leucine; SITE 17: note = Lysine is chemically modified through conjugation of the epsilon-amino group of the Lysine side chain with (2-[2-(2-Amino-ethoxy)-ethoxy]-acetyl)-(gamma-Glu)-CO-(CH2) 18-CO2H; SITE 20: n) [Example 8]: FALSE
YXQGTFTSDFSXXLDKKAQXAFIEYLLEGGPSSGAPPPGGS (synthetic construct; SITE 2: note = 2-Aminoisobutyric Acid; SITE 12: note = L-ornithine; SITE 13: note = alpha-methyl-leucine; SITE 17: note = Lysine is chemically modified through conjugation of the epsilon-amino group of the Lysine side chain with (2-[2-(2-Amino-ethoxy)-ethoxy]-acetyl)-(gamma-Glu)) [Example 62]: TRUE
YXQGTFTSDFSKXLDKKAQXAFIEYLLEXGPSSGAPPPSGS (synthetic construct; SITE 2: note = 2-Aminoisobutyric Acid; SITE 13: note = alpha-methyl-leucine; SITE 17: note = Lysine is chemically modified through conjugation of the epsilon-amino group of the Lysine side chain with (2-[2-(2-Amino-ethoxy)-ethoxy]-acetyl)-(gamma-Glu)-CO-(CH2) 18-CO2H; SITE 20: n) [Example 45]: FALSE
YXQGTFTSDFSXXLDKKAQXAFIEYLLAGGPSSGAPPPSGE (synthetic construct; SITE 2: note = 2-Aminoisobutyric Acid; SITE 12: note = L-ornithine; SITE 13: note = alpha-methyl-leucine; SITE 17: note = Lysine is chemically modified through conjugation of the epsilon-amino group of the Lysine side chain with (2-[2-(2-Amino-ethoxy)-ethoxy]-acetyl)-(gamma-Glu)) [Example 86]: TRUE
Y[Aib]QGTFTSDFS[Dap][αMeL]LDKK([AEEA-γGlu-C18 diacid])AQ[Aib]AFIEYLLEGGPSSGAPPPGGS-NH2 (ends and bridges not checked) [Example 68]: TRUE
YXQGTFTSDFSXXLDKKAQXAFIEYLLAGGPSSGEPPPSGE (synthetic construct; SITE 2: note = 2-Aminoisobutyric Acid; SITE 12: note = L-ornithine; SITE 13: note = alpha-methyl-leucine; SITE 17: note = Lysine is chemically modified through conjugation of the epsilon-amino group of the Lysine side chain with (2-[2-(2-Amino-ethoxy)-ethoxy]-acetyl)-(gamma-Glu)) [Example 97]: TRUE
YXQGTFTSDFSKXLDKKAQXAFIEYLIEGGPSSGAPPPSEG (not fully specified; acylated lipid side chain; synthetic construct; SITE 2: note = 2-Aminoisobutyric Acid; SITE 13: note = alpha-methyl-leucine; SITE 17: note = Lysine is chemically modified through conjugation of the epsilon-amino group of the Lysine side chain with (2-[2-(2-Amino-ethoxy)-ethoxy]-acetyl)-(gamma-Glu)-CO-gamma -gamma-(CH2)16-CO2H) [Example 49]: TRUE
YXQGTFTSDFSXXLDKKAQXAFIEYLLEXGPSSGAPPPSGS (synthetic construct; SITE 2: note = 2-Aminoisobutyric Acid; SITE 12: note = L-ornithine; SITE 13: note = alpha-methyl-leucine; SITE 17: note = Lysine is chemically modified through conjugation of the epsilon-amino group of the Lysine side chain with (2-[2-(2-Amino-ethoxy)-ethoxy]-acetyl)2-(gamma-Glu)) [Example 75]: TRUE
YXQGTFTSDFSKXLDKKAQXQFIEYLLAGGPSSGEPPPSEG (synthetic construct; SITE 2: note = 2-Aminoisobutyric Acid; SITE 13: note = alpha-methyl-leucine; SITE 17: note = Lysine is chemically modified through conjugation of the epsilon-amino group of the Lysine side chain with (2-[2-(2-Amino-ethoxy)-ethoxy]-acetyl)-(gamma-Glu)-CO-(CH2) 16-CO2H; SITE 20: n) [Example 26]: FALSE
YXQGTFTSDFSKXLDKKAQXAFIEYLLAGGPSSGAPPPSSG (synthetic construct; SITE 2: note = 2-Aminoisobutyric Acid; SITE 13: note = alpha-methyl-leucine; SITE 17: note = Lysine is chemically modified through conjugation of the epsilon-amino group of the Lysine side chain with (2-[2-(2-Amino-ethoxy)-ethoxy]-acetyl)-(gamma-Glu)-CO-(CH2) 18-CO2H; SITE 20: n) [Example 13]: FALSE
Y[Aib]QGTFTSDFSK[αMeL]LDKKAQQAFIEYLLA[Aib]GPSSGAPPPSEG-NH2 (not fully specified (residue 17)) [Example 30]: FALSE
YXQGTFTSDFSXXLDKKAQXAFIEYLLAGGPSSGAPPPSGD (synthetic construct; SITE 2: note = 2-Aminoisobutyric Acid; SITE 12: note = L-ornithine; SITE 13: note = alpha-methyl-leucine; SITE 17: note = Lysine is chemically modified through conjugation of the epsilon-amino group of the Lysine side chain with (2-[2-(2-Amino-ethoxy)-ethoxy]-acetyl)-(gamma-Glu)) [Example 85]: TRUE
